- assay-remarks: chemical genetic growth profiling, strain panel (AID 1159580);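 further: tested at 20 µM; growth read once vehicle control cultures reached saturation at 30 °C; 1 = growth at the plate median or of vehicle wells; lower values mean less growth of the strain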
- test-context: S. cerevisiae deletion strains, growth OD, locus YPL078C, strain atp4, stronger effect = lower value
About 2,000 (36%) of roughly 5,500 compounds were called active. Another 18% or so got no clear call; they are omitted. The list shows a part of the results.
result-type: normalized growth
Hey, just send me the number, nothing else.

// solved cases for normalized growth follow
• CC[C@@]1(O)C[C@H](O[C@H]2C[C@H](N(C)C)[C@H](O)[C@H](C)O2)c2c(cc3c(c2O)C(=O)c2c(O)cccc2C3=O)[C@H]1C(=O)OC = 0.961
• C=C1C2CC[C@@]3(C)[C@H](c4ccoc4)OC(=O)C[C@]13O[C@H]1CC(=O)C(C)(C)[C@H](C(OC(C)=O)C(=O)OC)[C@@]21C (stereo not given in full) = 0.958
• CNCCC(Oc1ccc(C(F)(F)F)cc1)c1ccccc1 (stereo not given) = 0.983
• CC[C@@H]1C=C/C=C/C[C@H](C)[C@@H](O)[C@](C)(O)C(=O)[C@H](C)[C@@H](O)[C@H](C)C(=O)[C@H](C)[C@@H](O)[C@H](C)/C=C/C(=O)O[C@H]2[C@@H](C)[C@@H](CC1)O[C@@]1(CC[C@@H](C)[C@@H](C[C@H](C)O)O1)[C@@H]2C = 1.02

Kindly consider the entry below.
Query: Any idea what normalized growth was measured for C/C=C(\C)C(=O)O[C@H]1C[C@@H](OC(C)=O)[C@@]2(C(=O)OC)CO[C@@H]3C2[C@]12CO[C@](O)(C(=O)OC)[C@H]2[C@](C)(C12O[C@@]1(C)[C@H]1C[C@@H]2OC2OC=C[C@@]21O)[C@@H]3O (stereo not given in full) ?
Response: 0.942
